biological target: purified recombinant HCV/E2 of 1a genotype (strain H) expressed in CHO cells (Hepatitis C virus genotype 1a (strain H), UniProt P27958 388-664)
Sequence (P27958 388-664 limits assumed): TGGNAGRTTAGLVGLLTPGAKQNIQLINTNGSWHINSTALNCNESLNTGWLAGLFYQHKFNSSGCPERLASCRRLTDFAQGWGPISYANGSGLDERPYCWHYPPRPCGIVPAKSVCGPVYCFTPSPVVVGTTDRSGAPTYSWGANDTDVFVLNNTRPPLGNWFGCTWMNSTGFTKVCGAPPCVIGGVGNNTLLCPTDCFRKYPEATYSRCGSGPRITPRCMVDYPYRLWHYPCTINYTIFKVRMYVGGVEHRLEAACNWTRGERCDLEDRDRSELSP
metric: IC50

# example entries with known answers
# binder human recombinant Fab e20 (Fab, V domains shown) VH: LLEQSGAEVKKPGSSVKVSCKASGDHYGINWVRQAPGQGLEWMGGIIPVFGTTTYAQKFQGRATITADDSTGTAFLELTRLTFDDTAVYFCATPHQLHVLRGGKALSPWDYWGQGT VL: MAELTQSPATLSVSPGERATLSCRASQSVSSNLAWYQQKRGQAPSLLIYGTSTRATGIPARFSGSGSGTEFTLTISSLQSEDFAVYYCQQYNDWPSTFGQGT ; its IC50 = 3 µg/mL

# binder human recombinant Fab e8 (Fab, V domains shown) VH: LLEQSGAEVKMPGATVKVSCQSSRYTFTSYGIGWVRQAPGQGLEWMGWISGYTHETKYAQSFQGRVTMTAETSTGTAYMELRSLRSDDTATYYCARDGGGRVVVPPTHLRAFDVWGQGT VL: MAELTQSPGTLSLSPGERATLSCRASHRVNNNFLAWYQQKPGQAPRLLISGASTRATGIPDRFSGSGSGTDFTLTISRLEPDDFAVYYCQQYGDSPLYSFGQGT ; its IC50 = > 40 µg/mL

# binder human recombinant Fab e301 (Fab, V domains shown) VH: LLEQSGSEVKKPGSSVRVSCTTSGGTLSDYGFNWLRQAPGQGPEWMGGIIPLFRRTTYGQKFQGRLTITADESTGATYMELSSLRSDDTAVYYCAREKVSVLTGGKSLHYFEYWGKGT VL: MAELTQSPATLSVSPGERATLSCRASQSVSSRLAWYQQKRGQAPSLLIYDTSSRATGVPARFSASGSGTQFTLTISSLQSEDFALYYCQQYNDWPSTFGQGT ; its IC50 = 3 µg/mL

We next turn to a different binder, shown below.
# binder human recombinant Fab e137 (Fab, V domains shown) VH: LLEQSGSEVKVPGSSLKVSCKTSGGTFSTYTFSWVRQAPGQGLEWMGGITPIIGIANYARNFQDRVTITADESTSTVYMEVRRLRSEDTAVYYCAKTSEVTATRGRTFFYSAMDVWGQGT VL: MAELTQSPSFLSASVGDRVTITCRASQGISNYLAWYQQKPGKAPKLLIYAASTLQSGVPSRFSGSGSWTEFTLTISRLQPEDFATYYCQHLNTYPWTFGQGT ; its IC50 = 40 µg/mL
